Target: T1, SNTG1, Q9NSN8
T1 sequence (Q9NSN8 52-150, limits assumed, looked up): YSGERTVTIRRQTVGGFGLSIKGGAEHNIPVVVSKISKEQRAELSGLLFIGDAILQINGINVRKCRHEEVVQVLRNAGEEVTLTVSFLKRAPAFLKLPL
Assay: holdup assay
Parameters: key: below the threshold = too weak to quantify, mostly under pKd 3.1 to 4
Conditions: plain residues with an end cap or a label only (N-terminal biotin on a linker: ado-ado)
PROPERTY: pKd
Please state the value as a number alone, without comment.

Prompt line: Consider the binder NVYGIESVKI [GRIA2, P42262] . State its measured pKd.
Response line: 3.65

Prompt line: Consider the binder ILRKSTTTTV [PRR16, Q569H4] . State its measured pKd.
Response line: 3.49
